Reference source: patent US20240216352A1

- Tested on: healthy participants
- TEST NAME: Phase 1 Part A single ascending dose (SAD) and FE/pH cohort: safety, blood pressure
- Format: in vivo, human
- TEST PARAMETERS: SAD 150 mg, D 1 4 h
MEASUREMENT NAME: Mean DBP (mmHg)
Express your answer in mmHg, writing the number without its unit.

[Q] // fetch Mean DBP for CCCN(C)C(=O)OCc1c(-c2ccc(O[C@H]3CCC[C@H](C(=O)O)C3)c(C)n2)nnn1C ; system: healthy participants
[A] 56

###

- Test system: healthy participants
- TEST NAME: Phase 1 Part A single ascending dose (SAD) and FE/pH cohort: safety, blood pressure
- Format: in vivo, human
- TEST PARAMETERS: 100 mg Fasted + Famotidine, D 1 2 h
MEASUREMENT NAME: Mean DBP
A complete answer gives the number followed by the unit.

[Q] Provide only the value of recorded Mean DBP for CCCN(C)C(=O)OCc1c(-c2ccc(O[C@H]3CCC[C@H](C(=O)O)C3)c(C)n2)nnn1C
[A] 67.2 mmHg

###

- Test system: healthy participants
- TEST NAME: Phase 1 Part B multiple ascending dose (MAD): blood pressure
- Format: in vivo, human
- TEST PARAMETERS: MAD 125 mg BID, D 1 8 h
MEASUREMENT NAME: Mean DBP (mmHg)
Just the number in mmHg, nothing appended.

[Q] Please report the measured Mean DBP for CCCN(C)C(=O)OCc1c(-c2ccc(O[C@H]3CCC[C@H](C(=O)O)C3)c(C)n2)nnn1C [Compound A] tested on healthy participants.
[A] 64.7

###

- System: healthy participants
- TEST NAME: Phase 1 Part B multiple ascending dose (MAD): blood pressure
- Type: in vivo, human
- TEST PARAMETERS: MAD 60 mg BID, D 2 24 h
- Procedure: The study was performed in 3 parts in 112 healthy male and female participants, including 24 Japanese participants. Female participants were to be not of childbearing potential. […]
MEASUREMENT NAME: Mean DBP (mmHg)
Numeric only. Scale: mmHg

[Q] Provide measured Mean DBP value, entry: CCCN(C)C(=O)OCc1c(-c2ccc(O[C@H]3CCC[C@H](C(=O)O)C3)c(C)n2)nnn1C [Compound A]
[A] 65.7

###

- Test system: healthy participants
- TEST NAME: Phase 1 Part A single ascending dose (SAD) and FE/pH cohort: safety, blood pressure
- Format: in vivo, human
- TEST PARAMETERS: SAD 100 mg, D 2 24 h
MEASUREMENT NAME: Mean DBP (mmHg)
Provide the reading as a plain figure in mmHg.

[Q] Give a short answer stating reported Mean DBP for CCCN(C)C(=O)OCc1c(-c2ccc(O[C@H]3CCC[C@H](C(=O)O)C3)c(C)n2)nnn1C .
[A] 66

###

- Tested on: healthy participants
- TEST NAME: Phase 1 Part A single ascending dose (SAD) and FE/pH cohort: safety, blood pressure
- Assay type: in vivo, human
- TEST PARAMETERS: SAD 30 mg, D 1 2 h
MEASUREMENT NAME: Mean DBP
Write the numeric value and follow it with the unit.

[Q] Determine from records and report Mean DBP for CCCN(C)C(=O)OCc1c(-c2ccc(O[C@H]3CCC[C@H](C(=O)O)C3)c(C)n2)nnn1C [Compound A]
[A] 66.2 mmHg

###

- System: healthy participants
- TEST NAME: Phase 1 Part A single ascending dose (SAD) and FE/pH cohort: safety, blood pressure
- Format: in vivo, human
- TEST PARAMETERS: SAD 30 mg, D 2 24 h
MEASUREMENT NAME: Mean DBP (mmHg)
Reply with just the number (in mmHg).

[Q] Please report the measured Mean DBP for CCCN(C)C(=O)OCc1c(-c2ccc(O[C@H]3CCC[C@H](C(=O)O)C3)c(C)n2)nnn1C
[A] 71

###

- Tested on: healthy participants
- TEST NAME: Phase 1 Part A single ascending dose (SAD) and FE/pH cohort: safety, blood pressure
- Type: in vivo, human
- TEST PARAMETERS: SAD 10 mg, D 1 2 h
MEASUREMENT NAME: Mean DBP

[Q] Indicate its recorded Mean DBP; the compound in question is CCCN(C)C(=O)OCc1c(-c2ccc(O[C@H]3CCC[C@H](C(=O)O)C3)c(C)n2)nnn1C [Compound A]
[A] 67.7 mmHg

###

- System: healthy participants
- TEST NAME: Phase 1 Part A single ascending dose (SAD) and FE/pH cohort: safety, blood pressure
- Format: in vivo, human
- TEST PARAMETERS: SAD 150 mg, D 2 24 h
MEASUREMENT NAME: Mean DBP (mmHg)
Expressed in mmHg, but write only the number.

[Q] Quick one: give measured Mean DBP for CCCN(C)C(=O)OCc1c(-c2ccc(O[C@H]3CCC[C@H](C(=O)O)C3)c(C)n2)nnn1C
[A] 66.2

###

- Test system: healthy participants
- TEST NAME: Phase 1 Part A single ascending dose (SAD) and FE/pH cohort: safety, blood pressure
- Format: in vivo, human
- TEST PARAMETERS: 100 mg Fed, D 1 2 h
MEASUREMENT NAME: Mean DBP (mmHg)
Answer in mmHg, number only, no unit symbol.

[Q] Please look at CCCN(C)C(=O)OCc1c(-c2ccc(O[C@H]3CCC[C@H](C(=O)O)C3)c(C)n2)nnn1C and tell me its recorded Mean DBP on healthy participants.
[A] 57.2

###

- Test system: healthy participants
- TEST NAME: Phase 1 Part A single ascending dose (SAD) and FE/pH cohort: safety, blood pressure
- Type: in vivo, human
- TEST PARAMETERS: SAD 3 mg, D 1 2 h
MEASUREMENT NAME: Mean DBP (mmHg)
Form entry: value (mmHg) — number only.

[Q] Please give the documented Mean DBP of CCCN(C)C(=O)OCc1c(-c2ccc(O[C@H]3CCC[C@H](C(=O)O)C3)c(C)n2)nnn1C [Compound A]
[A] 68.3

###

- Tested on: healthy participants
- TEST NAME: Phase 1 Part B multiple ascending dose (MAD): blood pressure
- Type: in vivo, human
- TEST PARAMETERS: MAD 30 mg QD, D 14 320 h
MEASUREMENT NAME: Mean DBP

[Q] Quick one: give measured Mean DBP for CCCN(C)C(=O)OCc1c(-c2ccc(O[C@H]3CCC[C@H](C(=O)O)C3)c(C)n2)nnn1C
[A] 63.2 mmHg

###

- Test system: healthy participants
- TEST NAME: Phase 1 Part B multiple ascending dose (MAD): blood pressure
- Type: in vivo, human
- TEST PARAMETERS: MAD 30 mg QD, D 14 314 h
MEASUREMENT NAME: Mean DBP (mmHg)
Reply numerically in mmHg, unit not repeated.

[Q] For the compound CCCN(C)C(=O)OCc1c(-c2ccc(O[C@H]3CCC[C@H](C(=O)O)C3)c(C)n2)nnn1C , give its reported Mean DBP.
[A] 63.5

###

- System: healthy participants
- TEST NAME: Phase 1 Part A single ascending dose (SAD) and FE/pH cohort: safety, blood pressure
- Assay type: in vivo, human
- TEST PARAMETERS: 100 mg Fed, D 2 24 h
MEASUREMENT NAME: Mean DBP

[Q] Entry CCCN(C)C(=O)OCc1c(-c2ccc(O[C@H]3CCC[C@H](C(=O)O)C3)c(C)n2)nnn1C needs its Mean DBP filled in; supply it.
[A] 69.3 mmHg

###

- Tested on: healthy participants
- TEST NAME: Phase 1 Part B multiple ascending dose (MAD): blood pressure
- Type: in vivo, human
- TEST PARAMETERS: MAD 10 mg QD, D 1 4 h
MEASUREMENT NAME: Mean DBP

[Q] Tell me Mean DBP reported for CCCN(C)C(=O)OCc1c(-c2ccc(O[C@H]3CCC[C@H](C(=O)O)C3)c(C)n2)nnn1C
[A] 65.8 mmHg

###

- System: healthy participants
- TEST NAME: Phase 1 Part A single ascending dose (SAD) and FE/pH cohort: safety, blood pressure
- Type: in vivo, human
- TEST PARAMETERS: 100 mg Fasted, D 2 24 h
MEASUREMENT NAME: Mean DBP (mmHg)
Write it as a number; the unit mmHg goes unstated.

[Q] Look up Mean DBP of CCCN(C)C(=O)OCc1c(-c2ccc(O[C@H]3CCC[C@H](C(=O)O)C3)c(C)n2)nnn1C and report it.
[A] 69.3

###

- Test system: healthy participants
- TEST NAME: Phase 1 Part A single ascending dose (SAD) and FE/pH cohort: safety, blood pressure
- Format: in vivo, human
- TEST PARAMETERS: 100 mg Fasted, D 1 4 h
MEASUREMENT NAME: Mean DBP
Value and unit, in that order.

[Q] With healthy participants as the test system, provide measured Mean DBP for this compound: CCCN(C)C(=O)OCc1c(-c2ccc(O[C@H]3CCC[C@H](C(=O)O)C3)c(C)n2)nnn1C
[A] 64.2 mmHg
